# inhibition at 4 µM listing for each entry below
target: chimeric human H3 receptor (Homo sapiens, UniProt Q9Y5N1); construct: rat Galpha-i2 (Gnai2, rat); made in house; host or cells: Sf9 insect cells (baculovirus); P2 membranes; assay: Chimeric human H3 receptor screening GTP binding assay (inhibition of histamine-stimulated GTP-gamma35S binding, Example 8); type: biochemical; conditions: 1 h; assay of Example 8; symbol "!" in column headed Ki; read-out: percent inhibition of agonist-induced GTP-gammaS binding to H3
Sequence (Q9Y5N1 with tags, fused parts or gaps): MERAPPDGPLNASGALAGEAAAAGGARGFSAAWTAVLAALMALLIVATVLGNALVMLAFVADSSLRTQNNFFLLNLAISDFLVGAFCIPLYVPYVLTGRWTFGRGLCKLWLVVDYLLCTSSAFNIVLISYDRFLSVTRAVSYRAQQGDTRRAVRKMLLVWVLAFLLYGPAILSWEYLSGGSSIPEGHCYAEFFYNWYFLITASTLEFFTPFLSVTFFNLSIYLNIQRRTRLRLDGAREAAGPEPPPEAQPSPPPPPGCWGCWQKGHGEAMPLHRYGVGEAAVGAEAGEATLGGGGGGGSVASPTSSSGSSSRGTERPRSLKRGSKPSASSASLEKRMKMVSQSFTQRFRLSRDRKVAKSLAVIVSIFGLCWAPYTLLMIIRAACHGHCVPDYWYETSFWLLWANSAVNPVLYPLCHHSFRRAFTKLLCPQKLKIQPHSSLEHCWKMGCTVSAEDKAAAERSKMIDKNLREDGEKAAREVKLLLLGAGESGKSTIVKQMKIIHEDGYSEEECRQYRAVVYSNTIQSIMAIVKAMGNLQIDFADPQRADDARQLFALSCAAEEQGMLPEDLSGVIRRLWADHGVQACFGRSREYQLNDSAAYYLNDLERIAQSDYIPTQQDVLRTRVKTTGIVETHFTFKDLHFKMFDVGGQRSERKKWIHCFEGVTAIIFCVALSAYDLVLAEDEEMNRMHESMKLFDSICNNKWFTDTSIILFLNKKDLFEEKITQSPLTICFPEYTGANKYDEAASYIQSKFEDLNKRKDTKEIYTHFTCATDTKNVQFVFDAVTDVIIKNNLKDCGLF

[
  {
    "smiles_code": "O=C(COc1cccc2ccccc12)N1CCc2cnc(N3CCN(C4CCC4)CC3)nc2CC1",
    "inhibition at 4 µM": "≥ 90%"
  },
  {
    "smiles_code": "O=C(C1CC1)N1CCc2cnc(N3CCN(C4CCC4)CC3)nc2CC1",
    "inhibition at 4 µM": "≥ 90%"
  },
  {
    "smiles_code": "N#Cc1ccc(C(=O)N2CCc3cnc(N4CCN(C5CCC5)CC4)nc3CC2)cc1",
    "inhibition at 4 µM": "≥ 90%"
  },
  {
    "smiles_code": "O=C(CC1CCCCC1)N1CCc2cnc(N3CCN(C4CCC4)CC3)nc2CC1",
    "inhibition at 4 µM": "≥ 90%"
  },
  {
    "smiles_code": "O=C(COc1ccccc1Cl)N1CCc2cnc(N3CCN(C4CCC4)CC3)nc2CC1",
    "inhibition at 4 µM": "≥ 90%"
  },
  {
    "smiles_code": "Cn1ccnc1CN1CCc2cnc(N3CCN(C4CCC4)CC3)nc2CC1",
    "inhibition at 4 µM": "≥ 90%"
  },
  {
    "smiles_code": "COc1ccccc1OCC(=O)N1CCc2cnc(N3CCN(C4CCC4)CC3)nc2CC1",
    "inhibition at 4 µM": "≥ 90%"
  },
  {
    "smiles_code": "CCCC(=O)N1CCc2cnc(N3CCN(C4CCC4)CC3)nc2CC1",
    "inhibition at 4 µM": "≥ 90%"
  },
  {
    "smiles_code": "Cc1cccc(OCC(=O)N2CCc3cnc(N4CCN(C5CCC5)CC4)nc3CC2)c1C",
    "inhibition at 4 µM": "≥ 90%"
  }
]

###

target: chimeric human H3 receptor (Homo sapiens); construct: rat Galpha-i2 (Gnai2, rat); made in house; host or cells: Sf9 insect cells (baculovirus); P2 membranes; test: Chimeric human H3 receptor screening GTP binding assay (inhibition of histamine-stimulated GTP-gamma35S binding, Example 8); format: biochemical; details: 1 h; assay described in Example 8; symbol "!" in column headed Ki; read-out: Ki ("!": percent inhibition of agonist-induced GTP-gammaS binding to H3)

[
  {
    "compound": "COc1cc(Cl)c(C(=O)N2CCc3cnc(N4CCN(C5CCC5)CC4)nc3CC2)cc1OC [Compound 428]",
    "study_system": "chimeric human H3 receptor (Homo sapiens)",
    "inhibition at 4 µM": "≥ 90%"
  },
  {
    "compound": "Cc1ccsc1C(=O)N1CCc2cnc(N3CCN(C4CCC4)CC3)nc2CC1 [Compound 444]",
    "study_system": "chimeric human H3 receptor (Homo sapiens)",
    "inhibition at 4 µM": "≥ 90%"
  },
  {
    "compound": "O=C(c1csc(-c2cccnc2)n1)N1CCc2cnc(N3CCN(C4CCC4)CC3)nc2CC1 [Compound 529]",
    "study_system": "chimeric human H3 receptor (Homo sapiens)",
    "inhibition at 4 µM": "≥ 90%"
  },
  {
    "compound": "Cc1ccc(C(=O)N2CCc3cnc(N4CCN(C5CCC5)CC4)nc3CC2)cc1Cl [Compound 394]",
    "study_system": "chimeric human H3 receptor (Homo sapiens)",
    "inhibition at 4 µM": "≥ 90%"
  },
  {
    "compound": "CCCc1c(C(=O)N2CCc3cnc(N4CCN(C5CCC5)CC4)nc3CC2)cnn1-c1ccc(Cl)cc1 [Compound 512]",
    "study_system": "chimeric human H3 receptor (Homo sapiens)",
    "inhibition at 4 µM": "≥ 90%"
  },
  {
    "compound": "COc1cc(C(=O)N2CCc3cnc(N4CCN(C5CCC5)CC4)nc3CC2)cc(Cl)n1 [Compound 485]",
    "study_system": "chimeric human H3 receptor (Homo sapiens)",
    "inhibition at 4 µM": "≥ 90%"
  },
  {
    "compound": "O=C(c1cc2ccccc2o1)N1CCc2cnc(N3CCN(C4CCC4)CC3)nc2CC1 [Compound 473]",
    "study_system": "chimeric human H3 receptor (Homo sapiens)",
    "inhibition at 4 µM": "≥ 90%"
  },
  {
    "compound": "COc1ccc(Br)c(C(=O)N2CCc3cnc(N4CCN(C5CCC5)CC4)nc3CC2)c1 [Compound 413]",
    "study_system": "chimeric human H3 receptor (Homo sapiens)",
    "inhibition at 4 µM": "≥ 90%"
  }
]
